Tested on: HT-22
assay-explanation: In vitro toxic concentration against HT-22 hippocampal cell cultures of mouse by MTT reduction assay
Type: functional
measurement-parameters: read-out: TC50 (the source's name)
Assign a class from recorded CC50; defined classes: bin A = under 30 µM, bin B = from 30 µM up to 80 µM, bin C = 80 µM and over

>  <compound>
O=C(c1ccccc1)c1ccc2c(c1O)NC1(CCCCC1)C(O)O2 (stereo not drawn)

>  <class-label>
bin C

$$$$
>  <compound>
CC1(C)Nc2c(ccc(C(=O)c3ccccc3)c2O)OC1NC1CCCCC1 (stereo not drawn)

>  <class-label>
bin A

$$$$
>  <compound>
O=C(c1ccccc1)c1ccc2c(c1O)NC1(CCCCC1)C(N1CCOCC1)O2 (stereo not drawn)

>  <class-label>
bin A

$$$$
>  <compound>
CC1(C)Nc2c(ccc(C(=O)c3ccccc3)c2O)OC1NCCc1ccccc1 (stereo not drawn)

>  <class-label>
bin B

$$$$
>  <compound>
CC(C)CNC1Oc2ccc(C(=O)c3ccccc3)c(O)c2NC1c1ccccc1 (stereo not drawn)

>  <class-label>
bin C

$$$$
>  <compound>
O=C(c1ccccc1)c1ccc2c(c1O)NC1(CCCCC1)C(NCC1CCCCC1)O2 (stereo not drawn)

>  <class-label>
bin A

$$$$
>  <compound>
CC1(C)Nc2c(ccc(C(=O)c3ccccc3)c2O)OC1N1CCOCC1 (stereo not drawn)

>  <class-label>
bin B

$$$$
>  <compound>
O=C(c1ccccc1)c1ccc2c(c1O)NC1(CCCCC1)C(N1CCCCC1)O2 (stereo not drawn)

>  <class-label>
bin C

$$$$
>  <compound>
CC1(C)Nc2c(ccc(C(=O)c3ccccc3)c2O)OC1N1CCCCC1 (stereo not drawn)

>  <class-label>
bin B

$$$$
>  <compound>
COC(CNC1Oc2ccc(C(=O)c3ccccc3)c(O)c2NC1c1ccccc1)OC (stereo not drawn)

>  <class-label>
bin C

$$$$
>  <compound>
CC(C)(C)C1COc2c(NCCc3ccccc3)ccc(C(=O)c3ccccc3)c2N1 (stereo not drawn)

>  <class-label>
bin C

$$$$
>  <compound>
O=C(c1ccccc1)c1ccc(NCc2ccccc2)c2c1NC1(CCCC1)CO2

>  <class-label>
bin C

$$$$
>  <compound>
O=C(c1ccccc1)c1ccc2c(c1O)NC1(CCCC1)C(NCC1CCCC1)O2 (stereo not drawn)

>  <class-label>
bin A

$$$$

====

Tested on: HT-22
assay-explanation: In vitro toxic concentration against HT-22 hippocampal cell cultures of mouse by MTT reduction assay
Type: functional
measurement-parameters: read-out: TC50 (the source's name)
molecules and their reported CC50

>  <molecule>
CC1(C)Nc2c(ccc(C(=O)c3ccccc3)c2O)OC1O (stereo not given)

>  <tested-on>
HT-22

>  <CC50>
48 µM

$$$$
>  <molecule>
O=C(c1ccccc1)c1ccc2c(c1O)NC(c1ccccc1)C(NCC(c1ccccc1)c1ccccc1)O2 (stereo not given)

>  <tested-on>
HT-22

>  <CC50>
> 250 µM

$$$$
>  <molecule>
CN(CC1OCCO1)C1Oc2ccc(C(=O)c3ccccc3)c(O)c2NC1c1ccccc1 (stereo not given)

>  <tested-on>
HT-22

>  <CC50>
> 250 µM

$$$$
>  <molecule>
CN(CC1OCCO1)C1Oc2ccc(C(=O)c3ccccc3)c(O)c2NC12CCCCC2 (stereo not given)

>  <tested-on>
HT-22

>  <CC50>
25 µM

$$$$
>  <molecule>
CC(C)CNC1Oc2ccc(C(=O)c3ccccc3)c(O)c2NC1(C)C (stereo not given)

>  <tested-on>
HT-22

>  <CC50>
45 µM

$$$$

====

molecules and their reported logP
assay-explanation: Partition coefficient (logP)
Assay type: physicochemical
measurement-parameters: octanol/water
recorded-endpoint: logP

>  <molecule>
O=C(c1ccccc1)c1ccc(NCc2ccccc2)c2c1NC1(CCCC1)CO2

>  <recorded-endpoint>
logP

>  <test-value>
5.11

$$$$
>  <molecule>
CN(CC1OCCO1)C1Oc2ccc(C(=O)c3ccccc3)c(O)c2NC1c1ccccc1 (stereo not drawn)

>  <recorded-endpoint>
logP

>  <test-value>
5.57

$$$$
>  <molecule>
CC(C)(C)C1COc2c(NCCc3ccccc3)ccc(C(=O)c3ccccc3)c2N1 (stereo not drawn)

>  <recorded-endpoint>
logP

>  <test-value>
5.28

$$$$

====

Test system: HT-22
assay-explanation: In vitro protective concentration of compound for HT-22 hippocampal cell cultures of mouse against 2 mM L-homocysteic acid in MTT reduction assay
Format: functional
compounds and their reported PC50

>  <compound>
O=C(c1ccccc1)c1ccc2c(c1O)NC1(CCCC1)C(NCC1CCCC1)O2 (stereo not drawn)

>  <PC50, µM>
1.39

$$$$
>  <compound>
CC1(C)Nc2c(ccc(C(=O)c3ccccc3)c2O)OC1O (stereo not drawn)

>  <PC50, µM>
0.97

$$$$
>  <compound>
O=C(c1ccccc1)c1ccc(NCc2ccccc2)c2c1NC1(CCCC1)CO2

>  <PC50, µM>
15.8

$$$$
>  <compound>
O=C(c1ccccc1)c1ccc2c(c1O)NC1(CCCCC1)C(N1CCCCC1)O2 (stereo not drawn)

>  <PC50, µM>
12.3

$$$$
>  <compound>
CC1(C)Nc2c(ccc(C(=O)c3ccccc3)c2O)OC1NCCc1ccccc1 (stereo not drawn)

>  <PC50, µM>
2

$$$$
>  <compound>
COC(CNC1Oc2ccc(C(=O)c3ccccc3)c(O)c2NC1c1ccccc1)OC (stereo not drawn)

>  <PC50, µM>
5

$$$$
>  <compound>
CC1(C)Nc2c(ccc(C(=O)c3ccccc3)c2O)OC1N1CCOCC1 (stereo not drawn)

>  <PC50, µM>
1.7

$$$$
>  <compound>
CC1(C)Nc2c(ccc(C(=O)c3ccccc3)c2O)OC1N1CCCCC1 (stereo not drawn)

>  <PC50, µM>
3.2

$$$$
>  <compound>
CN(CC1OCCO1)C1Oc2ccc(C(=O)c3ccccc3)c(O)c2NC12CCCCC2 (stereo not drawn)

>  <PC50, µM>
2.4

$$$$
>  <compound>
CC(C)CNC1Oc2ccc(C(=O)c3ccccc3)c(O)c2NC1(C)C (stereo not drawn)

>  <PC50, µM>
0.41

$$$$
>  <compound>
CC(C)CNC1Oc2ccc(C(=O)c3ccccc3)c(O)c2NC1c1ccccc1 (stereo not drawn)

>  <PC50, µM>
10

$$$$
>  <compound>
CC(C)(C)C1COc2c(NCCc3ccccc3)ccc(C(=O)c3ccccc3)c2N1 (stereo not drawn)

>  <PC50, µM>
2.5

$$$$
>  <compound>
CC1(C)Nc2c(ccc(C(=O)c3ccccc3)c2O)OC1NC1CCCCC1 (stereo not drawn)

>  <PC50, µM>
2.4

$$$$
>  <compound>
O=C(c1ccccc1)c1ccc2c(c1O)NC1(CCCCC1)C(NCC1CCCCC1)O2 (stereo not drawn)

>  <PC50, µM>
0.24

$$$$
>  <compound>
CN(CC1OCCO1)C1Oc2ccc(C(=O)c3ccccc3)c(O)c2NC1c1ccccc1 (stereo not drawn)

>  <PC50, µM>
0.5

$$$$
>  <compound>
O=C(c1ccccc1)c1ccc2c(c1O)NC1(CCCCC1)C(O)O2 (stereo not drawn)

>  <PC50, µM>
4

$$$$
>  <compound>
O=C(c1ccccc1)c1ccc2c(c1O)NC(c1ccccc1)C(NCC(c1ccccc1)c1ccccc1)O2 (stereo not drawn)

>  <PC50, µM>
10

$$$$
>  <compound>
O=C(c1ccccc1)c1ccc2c(c1O)NC1(CCCCC1)C(N1CCOCC1)O2 (stereo not drawn)

>  <PC50, µM>
2.8

$$$$

====

Test system: HT-22
assay-explanation: In vitro safety index as ratio of MTC/PC50 was determined for HT-22 hippocampal cell cultures of mouse by MTT reduction assay
Assay type: functional
Decision: Safety index compared against 8; not below it gives t, below it gives f.

>  <compound>
O=C(c1ccccc1)c1ccc2c(c1O)NC1(CCCCC1)C(NCC1CCCCC1)O2 (stereo not drawn)

>  <class-label>
t

$$$$
>  <compound>
CC1(C)Nc2c(ccc(C(=O)c3ccccc3)c2O)OC1N1CCOCC1 (stereo not drawn)

>  <class-label>
f

$$$$
>  <compound>
O=C(c1ccccc1)c1ccc2c(c1O)NC1(CCCC1)C(NCC1CCCC1)O2 (stereo not drawn)

>  <class-label>
f

$$$$
>  <compound>
O=C(c1ccccc1)c1ccc2c(c1O)NC(c1ccccc1)C(NCC(c1ccccc1)c1ccccc1)O2 (stereo not drawn)

>  <class-label>
t

$$$$
>  <compound>
CC1(C)Nc2c(ccc(C(=O)c3ccccc3)c2O)OC1O (stereo not drawn)

>  <class-label>
t

$$$$
>  <compound>
O=C(c1ccccc1)c1ccc(NCc2ccccc2)c2c1NC1(CCCC1)CO2

>  <class-label>
t

$$$$
>  <compound>
COC(CNC1Oc2ccc(C(=O)c3ccccc3)c(O)c2NC1c1ccccc1)OC (stereo not drawn)

>  <class-label>
t

$$$$
